TGT: recombinant human CD3ε/δ heterodimer (human) (UniProt P07766)
Sequence (P07766 23-126, stated change not applied, chain 1 of 2): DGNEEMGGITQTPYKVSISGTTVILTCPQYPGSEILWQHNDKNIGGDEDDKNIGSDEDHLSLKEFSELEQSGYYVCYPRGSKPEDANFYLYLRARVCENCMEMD
Sequence (P04234 22-105, stated change not applied, chain 2 of 2, further chain): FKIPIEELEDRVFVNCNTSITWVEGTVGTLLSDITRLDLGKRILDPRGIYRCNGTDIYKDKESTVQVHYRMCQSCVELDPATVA
METHOD_NOTES: ELISA, coated CD3ε/δ
QUANTITY_NAME: Absorbance (450 nm)

Below are worked cases with known answers.
{"BINDER": "B15 (antibody, human IgG1, lambda, L234A L235A, V domains shown) VH: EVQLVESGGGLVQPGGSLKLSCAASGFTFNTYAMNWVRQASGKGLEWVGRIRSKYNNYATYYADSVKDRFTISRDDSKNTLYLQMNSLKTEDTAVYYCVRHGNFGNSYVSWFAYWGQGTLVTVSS VL: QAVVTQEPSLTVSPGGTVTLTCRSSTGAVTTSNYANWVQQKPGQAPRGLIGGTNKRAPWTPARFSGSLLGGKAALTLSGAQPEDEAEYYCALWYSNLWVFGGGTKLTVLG", "ASSAY_RESULT": 2.71}
{"BINDER": "A01 (antibody, human IgG1, lambda, L234A L235A, V domains shown) VH: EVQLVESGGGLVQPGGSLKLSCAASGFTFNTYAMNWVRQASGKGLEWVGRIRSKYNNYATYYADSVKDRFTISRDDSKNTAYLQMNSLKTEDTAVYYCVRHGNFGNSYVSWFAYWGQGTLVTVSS VL: QAVVTQEPSLTVSPGGTVTLTCRSSTGAVTTSNYANWFQQKPGQAPRTLIYGTNKRAPWTPARFSGSLLGGKAALTLSGAQPEDEAEYYCALWYSNLWVFGGGTKLTVLG", "ASSAY_RESULT": 0.152}

Exercise: Which Absorbance (450 nm) reading was recorded for the binder A11 (antibody, human IgG1, lambda, L234A L235A, V domains shown) VH: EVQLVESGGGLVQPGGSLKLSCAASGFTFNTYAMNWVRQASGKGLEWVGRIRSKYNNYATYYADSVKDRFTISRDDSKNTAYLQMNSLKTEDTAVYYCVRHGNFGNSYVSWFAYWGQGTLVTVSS VL: QAVVTQEPSLTVSPGGTVTLTCRSSTGAVTTSNYANWVQQKPGQAPRTLIGGTNKRAPWTPARFSGSLLGGKAALTLSGAQPEDEAEYYCALWYSNLWVFGGGTKLTVLG ?
Key: 0.122
